# Assayed target: human ether-à-go-go-related gene (hERG) potassium channel (human);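 also: peak tail current of the secondary pulse compared with the same well before compound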
# Sequence (Q12809 whole entry, looked up): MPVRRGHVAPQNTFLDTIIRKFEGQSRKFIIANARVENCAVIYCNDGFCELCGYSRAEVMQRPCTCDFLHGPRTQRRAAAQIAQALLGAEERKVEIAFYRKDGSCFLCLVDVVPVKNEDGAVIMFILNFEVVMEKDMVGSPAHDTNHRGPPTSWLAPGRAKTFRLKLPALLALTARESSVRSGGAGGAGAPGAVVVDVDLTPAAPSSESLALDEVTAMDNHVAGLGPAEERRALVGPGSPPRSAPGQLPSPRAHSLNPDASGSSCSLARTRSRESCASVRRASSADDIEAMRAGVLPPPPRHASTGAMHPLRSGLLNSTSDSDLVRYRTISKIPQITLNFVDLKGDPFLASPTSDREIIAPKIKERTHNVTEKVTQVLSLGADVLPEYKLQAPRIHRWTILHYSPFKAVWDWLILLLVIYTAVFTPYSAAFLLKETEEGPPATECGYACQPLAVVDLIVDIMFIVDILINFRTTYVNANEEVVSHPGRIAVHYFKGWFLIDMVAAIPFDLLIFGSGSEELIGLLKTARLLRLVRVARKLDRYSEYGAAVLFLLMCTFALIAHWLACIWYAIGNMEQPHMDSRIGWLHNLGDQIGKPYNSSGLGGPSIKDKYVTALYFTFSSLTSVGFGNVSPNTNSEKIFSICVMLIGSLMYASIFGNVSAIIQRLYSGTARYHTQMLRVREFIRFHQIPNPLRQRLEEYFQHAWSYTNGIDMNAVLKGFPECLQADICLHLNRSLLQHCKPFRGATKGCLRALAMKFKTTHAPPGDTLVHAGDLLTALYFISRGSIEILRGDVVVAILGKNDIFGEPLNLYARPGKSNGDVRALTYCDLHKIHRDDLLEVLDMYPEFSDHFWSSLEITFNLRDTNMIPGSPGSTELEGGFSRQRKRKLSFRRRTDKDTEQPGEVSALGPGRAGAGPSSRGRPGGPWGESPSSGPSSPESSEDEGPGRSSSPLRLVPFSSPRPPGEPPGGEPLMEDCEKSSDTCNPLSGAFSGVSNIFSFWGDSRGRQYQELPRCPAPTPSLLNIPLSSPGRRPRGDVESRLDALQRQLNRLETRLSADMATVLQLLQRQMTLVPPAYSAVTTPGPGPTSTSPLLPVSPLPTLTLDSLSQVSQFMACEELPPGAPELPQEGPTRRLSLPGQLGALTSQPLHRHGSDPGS
# Method notes: primary screen, population patch clamp on CHO cells stably expressing hERG; higher = less effect of the substance
Out of some 310,000 compounds screened, about 14,000 (4.5%) showed an effect of 50% or more. Effects have a minus sign here. For the sample, strong results were picked, then their nearest neighbours and some compounds at random.
Observable: hERG current change (%, negative = inhibition) at 10uM (%)

> print(dat)
                                   molecule                            assayed.target  reported.result
1  CC1(C)NC(=O)N(CC(O)CN(c2ccccc2)S(=O)(=O)c2ccccc2[N+](=O)[O-])C1=O (centres unmarked)  human ether-à-go-go-related gene (hERG) potassium channel (human)             13.7
2  CC(C)CN(CC(C)C)CC(O)CN(c1ccccc1)S(=O)(=O)c1ccccc1[N+](=O)[O-] (centres unmarked)  human ether-à-go-go-related gene (hERG) potassium channel (human)            -51.5
3  COc1ccccc1N(CC(O)CN1CCCC1)S(=O)(=O)c1ccccc1 (centres unmarked)  human ether-à-go-go-related gene (hERG) potassium channel (human)            -4.48
4  Cc1cccc(N(CC(O)CN2CCCC2)S(=O)(=O)c2ccccc2)c1 (centres unmarked)  human ether-à-go-go-related gene (hERG) potassium channel (human)              -57
5  Cc1ccc(N(CC(O)CN2CCCC2)S(=O)(=O)c2ccccc2)cc1 (centres unmarked)  human ether-à-go-go-related gene (hERG) potassium channel (human)            -68.2

###

# Assayed target: human ether-à-go-go-related gene (hERG) potassium channel (human);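 also: peak tail current of the secondary pulse compared with the same well before compound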
# Method notes: primary screen, population patch clamp on CHO cells stably expressing hERG; higher = less effect of the substance
# Description: Briefly, Chinese hamster ovary (CHO) cells stably expressing the hERG channel were dislodged from tissue culture flasks and dispensed into PPC plates. […] During the recording, background leak currents were estimated by a 100 ms step to -80 mV from an initial holding potential of -70 mV and subtracted from the subsequent current measurement. The campaign was conducted in two phases using slight differences in recording protocol. […]
Out of some 310,000 compounds screened, about 14,000 (4.5%) showed an effect of 50% or more. The effect is printed as a negative number. For the sample, strong results were picked, then their nearest neighbours and some compounds at random.
List of hERG current change (%, negative = inhibition) at 10uM values.
Observable: hERG current change (%, negative = inhibition) at 10uM (%)

> print(dat)
                                    molecule  unit.abbreviation  reported.result
 1  O=C(CCNC(=O)C1CCN(S(=O)(=O)c2ccc(F)cc2)CC1)Nc1nccs1                  %             15.5
 2   CNC(=S)N1CCN(c2nc(-c3ccc(Cl)cc3)cs2)CC1                  %             14.7
 3  CC(=O)OCC(OC(C)=O)C(OC(C)=O)C(OC(C)=O)C(=O)Nc1ccccc1 (stereo not shown)                  %             16.6
 4  CC(Cc1ccccc1)NC(=O)/C=C/c1ccc(Cl)cc1 (stereo not shown)                  %            -11.7
 5        Nn1c(SC/C=C/c2ccccc2)nnc1-c1cccnc1                  %             23.4
 6  CCOC(=O)N1CCC(N(CCN(C)C)C(=S)Nc2ccccc2OCC)CC1                  %            -8.05
 7  O=[N+]([O-])c1ccc(N2CCN(S(=O)(=O)c3ccc(Cl)c(Cl)c3)CC2)cc1NCCN1CCOCC1                  %             3.04
 8  C=Cc1ccc(C(=O)N2CCCC(CCC(=O)N3CCN(c4ccccn4)CC3)C2)cc1 (stereo not shown)                  %            -4.57
 9  CC(=O)Nc1ccc(/C(C)=N/NC(=O)CN(c2ccccc2Br)S(C)(=O)=O)cc1                  %            -4.13
10  Cc1ccc(S(=O)(=O)NCc2ccc(C(=O)N3CCN(c4ccc([N+](=O)[O-])cc4)CC3)cc2)cc1                  %            -70.7
11  CCOc1ccc(C(=O)NCC(=O)NCC(c2ccc(OC)cc2)N2CCCC2)cc1 (stereo not shown)                  %            -4.71
12   Cc1cnc(NC(=O)CSc2nc3ccccc3c(=O)[nH]2)s1                  %            -7.72
13  CCCc1nc2ccc(NC(=O)c3cccs3)cc2c(=O)n1Cc1ccccc1Cl                  %              1.8
14      O=C(Cc1ccc(Cl)cc1)N1CCN(c2ccccc2)CC1                  %            -12.2
15          Cn1c(SCC(=O)N2CCCC2=O)nc2ccccc21                  %             28.2
16  Cc1ccc(C)c(OCc2nc3ccc(S(=O)(=O)Nc4c(C)n(C)n(-c5ccccc5)c4=O)cc3[nH]2)c1                  %             7.31
17    O=C(Cc1ccc(F)cc1)N1CCN(c2ccc(F)cc2)CC1                  %            0.483
18  O=C(CSc1nnc(-c2cccnc2)n1Cc1ccco1)N1c2ccccc2Sc2ccccc21                  %            -33.7
19       COc1ccc(OC)c2c1C(=O)C(Cl)=C(Cl)C2=O                  %             13.4
20  O=CN1CCN(C(=O)Cc2ccc([N+](=O)[O-])cc2)CC1                  %            -25.6
21       CC(C)(C)C(=O)Nc1ccc(N=Nc2ccccc2)cc1                  %           -0.305
22  CC(Cc1ccccc1)NC(=O)Cc1ccc([N+](=O)[O-])cc1 (stereo not shown)                  %            -17.8
23  Cc1c(NC(=O)c2ccc([N+](=O)[O-])o2)cccc1-c1nc2ncccc2o1                  %            -11.8
24      CCSc1ncnc2c1sc1nc3c(cc12)COC(C)(C)C3                  %            -2.04
25  O=C(Cn1ccc(NC(=O)OCc2ccccc2)nc1=O)NCCCn1ccnc1                  %             6.72
26  O=C(NNC(=O)C12CC3CC(CC(Cl)(C3)C1)C2)c1csc(N2CCOCC2)n1                  %            -1.63
27  COc1ccc(-c2noc(C(=O)NCc3ccccc3Cl)n2)cc1OC                  %            0.607
28            O=C(Cc1cccs1)N/N=C\c1ccc(O)cc1                  %             14.5
29               Cn1ccc(-c2ccccc2)c(C#N)c1=O                  %             3.34
30  Cc1nc(Nc2ccc(C(=O)O)cc2)nc(Nc2ccc(C(=O)O)cc2)c1[N+](=O)[O-]                  %             15.3
31  O=C(c1ccc(Br)cc1)N1CCN(S(=O)(=O)c2ccccc2)CC1                  %            -38.5
32  c1ccc(-c2cn(C[C@H]3CC[C@H](Cn4cc(-c5ccccn5)nn4)O3)nn2)nc1                  %             -9.3
33         Cc1[nH]nc(N2CCCCC2)c1[N+](=O)[O-]                  %            -6.37
34    CCN1C(=O)N[C@H](c2ccccc2)C(C(C)=O)=C1C                  %             8.38
35  COc1ccc(N2CCN(C(=O)c3ccc(CNS(=O)(=O)c4ccc(C)cc4)cc3)CC2)cc1                  %             13.9
36  C(=C\c1ccccc1)/CSc1nnc(-c2ccncc2)n1Cc1ccco1                  %            -63.9
37       COc1ccc(-c2cn(Cc3cccc(OC)c3)nn2)cc1                  %           -0.524
38  Cc1ccnc2c(N3C(=O)C4C5c6ccccc6C(c6ccccc65)C4C3=O)cccc12 (stereo not shown)                  %            -2.78
39  O=C(CSc1nc(-c2ccc(F)cc2)cc(C(F)(F)F)n1)NCc1ccco1                  %             10.2
40  Cc1ccc2nc3c(c(C(=O)OC4CCOC4=O)c2c1)CCCC3 (stereo not shown)                  %           -0.191
